Origin of values: patent US20250241870A1

test: MTT assay, cell viability rate of 3T3-L1 mature adipocytes; assay type: cell-based; conditions: mouse, 3T3-L1 mature adipocytes (differentiated from preadipocytes), 3T3-L1 mature adipocytes, drug 50 ppm, 0.2% DMSO, 24 hours; read-out: Cell viability rate, Replicate 3

chemical-smiles | units-label | viability at 24 h, 50 ppm
COc1ccc(/C=C/c2cc(O)cc(O)c2)cc1O | % | 73.5

* * *

test: MTT assay, cell viability rate of 3T3-L1 mature adipocytes; type: cell-based; conditions: mouse, Average viability (%)

chemical-smiles | units-label | viability at 24 h, 20 ppm
Oc1cc(O)cc(/C=C/c2ccc(O)cc2O)c1 | % | 76.8

* * *

Below, each entry is listed alongside its reported viability at 24 h, 50 ppm.
assay: MTT assay, cell viability rate of 3T3-L1 mature adipocytes; assay type: cell-based; conditions: mouse, Cell viability rate, Replicate 3

compound | viability at 24 h, 50 ppm
CC(=O)Oc1ccc(/C=C/c2cc(OC(C)=O)cc(OC(C)=O)c2)cc1 [TriacetyIR] | 67.2%
Oc1cc(O)cc(/C=C/c2ccc(O)cc2O)c1 [Oxyresveratrol] | 37%
